- Test system: Pseudomonas luteola
- TEST DESCRIPTION: Antimicrobial activity against Pseudomonas luteola expressing blaLUT-2 to blaLUT-6 by Etest method
- Type: functional
I'd be grateful if you could share measured MIC for these entries.
Numbers only, in µg/mL.

Reference set (5 entries):
>  <COMPOUND>
C[C@@H](O)[C@H]1C(=O)N2C(C(=O)O)=C(SCCNC=N)C[C@H]12 [IMIPENEM ANHYDROUS]

>  <UNIT NAME>
µg/mL

>  <MIC>
0.25

$$$$
>  <COMPOUND>
CC1(C)S[C@@H]2[C@H](NC(=O)[C@H](C(=O)O)c3ccsc3)C(=O)N2[C@H]1C(=O)O [TICARCILLIN]

>  <UNIT NAME>
µg/mL

>  <MIC>
8

$$$$
>  <COMPOUND>
CCN1CCN(C(=O)N[C@@H](C(=O)N[C@@H]2C(=O)N3[C@@H]2SC(C)(C)[C@@H]3C(=O)O)c2ccccc2)C(=O)C1=O [PIPERACILLIN]

>  <UNIT NAME>
µg/mL

>  <MIC>
2

$$$$
>  <COMPOUND>
CO/N=C(\C(=O)N[C@@H]1C(=O)N2C(C(=O)[O-])=C(C[N+]3(C)CCCC3)CS[C@H]12)c1csc(N)n1

>  <UNIT NAME>
µg/mL

>  <MIC>
1

$$$$
>  <COMPOUND>
C[C@H]1[C@H](NC(=O)/C(=N\OC(C)(C)C(=O)O)c2csc(N)n2)C(=O)N1S(=O)(=O)O [AZTREONAM]

>  <UNIT NAME>
µg/mL

>  <MIC>
4

$$$$

Give one value of MIC per listed compound.
1. CC(=O)OCC1=C(C(=O)O)N2C(=O)[C@@H](NC(=O)Cc3cccs3)[C@H]2SC1 [CEPHALOTHIN]
2. CC1(C)S[C@@H]2[C@H](NC(=O)[C@H](N)c3ccc(O)cc3)C(=O)N2[C@H]1C(=O)O [AMOXICILLIN]

result:
1. 128
2. 4
